target: TGF-β1 (Mus musculus, UniProt P04202); construct: from tissue; host or cells: liver of Balb/C mice (CCl4 model); lung of C57BL/6 mice (bleomycin model); experiment: Model of acute liver damage induced by CCl4, type I collagen mRNA by real time PCR; assay type: in vivo, mice; conditions: Balb/C mice, oral CCl4, 50 μg of peptide every 24 h, sacrifice after 72 hours
Sequence (P04202 279-390 limits assumed): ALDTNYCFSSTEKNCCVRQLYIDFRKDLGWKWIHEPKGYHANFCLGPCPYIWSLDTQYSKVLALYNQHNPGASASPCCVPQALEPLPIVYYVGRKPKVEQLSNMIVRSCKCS
Ends that are not written are not given here.
Answer not met if % Inhibition of type I collagen mRNA induction (in vivo TGF-β1 biological activity) is under 40%, and met if it is 40% or more.

Past entries and their recorded results:
RKWFLQHRRMPVSVL [SEQ ID NO: 13] = not met
RHLSHFKWLRSHGLD [SEQ ID NO: 19] = not met
RLAHSHRHRSHVALT [SEQ ID NO: 4] = met

Can GWHSLLHSRYHRLAA [SEQ ID NO: 9] be said to have % Inhibition of type I collagen mRNA induction (in vivo TGF-β1 biological activity) at or above 40%?
not met

Can RFFTRFPWHYHASRL [SEQ ID NO: 3] be said to have % Inhibition of type I collagen mRNA induction (in vivo TGF-β1 biological activity) at or above 40%?
not met

Can PPYHRFWRGHRHAVQ [SEQ ID NO: 6] be said to have % Inhibition of type I collagen mRNA induction (in vivo TGF-β1 biological activity) at or above 40%?
met

Can GWITFHRRHHDRVLS [SEQ ID NO: 15] be said to have % Inhibition of type I collagen mRNA induction (in vivo TGF-β1 biological activity) at or above 40%?
not met

Can RRFHFHSRMVAVDNS [SEQ ID NO: 20] be said to have % Inhibition of type I collagen mRNA induction (in vivo TGF-β1 biological activity) at or above 40%?
not met

Can DRRIFWWSLRSAPGA [SEQ ID NO: 1] be said to have % Inhibition of type I collagen mRNA induction (in vivo TGF-β1 biological activity) at or above 40%?
not met

Can KRIWFIPRSSWYERA [SEQ ID NO: 17, KRIWFIPRSSWYERA] be said to have % Inhibition of type I collagen mRNA induction (in vivo TGF-β1 biological activity) at or above 40%?
met

Can TSLDASIIWAMMQN [P144] be said to have % Inhibition of type I collagen mRNA induction (in vivo TGF-β1 biological activity) at or above 40%?
not met

Can SGRRHLHRHHIFSLP [SEQ ID NO: 14] be said to have % Inhibition of type I collagen mRNA induction (in vivo TGF-β1 biological activity) at or above 40%?
met

Can DRRIFWWSNRSAPGA [SEQ ID NO: 2] be said to have % Inhibition of type I collagen mRNA induction (in vivo TGF-β1 biological activity) at or above 40%?
not met

----------
target: TGF-β1 (Homo sapiens); assay type: cell-based; set-up: purchased Roche; host or cells: added to Mv-1-Lu (CCL-64) mink lung epithelial cells
Sequence (P01137 279-390 limits assumed, species assumed): as the sequence (P04202 279-390 limits assumed) above, with S75A counted along it
Ends that are not written are not given here.
Decide using % Inhibition of in vitro TGF-β1 biological activity alone. Strictly below 6%: 1.0. Equal to or above 6%: 0.0.

KRIWFIPRS [SEQ ID NO: 36, KRIWFIPRS] = 0.0
KRIWFIPRSSWYERA [SEQ ID NO: 17, KRIWFIPRSSWYERA] = 0.0
IPRSSWYERA [SEQ ID NO: 31, IPRSSWYERA] = 1.0
WFIPRSSWYERA [SEQ ID NO: 29, WFIPRSSWYERA] = 1.0

Read the next record carefully.
Regarding IWFIPRSSWYERA [SEQ ID NO: 26, IWFIPRSSWYERA] , kindly confirm whether its % Inhibition of in vitro TGF-β1 biological activity is beneath 6%.
1.0

----------
target: TGF-β1 (Homo sapiens); test: Biopanning of phage-displayed 15-aa peptide library on biotinylated TGF-β1, number of colonies per sequence; assay type: binding; parameters: purchased Roche; host or cells: added to Mv-1-Lu (CCL-64) mink lung epithelial cells; details: clones carrying the sequence among 108 colonies after the last biopanning cycle; approximate indication of affinity for TGF-β1
Ends that are not written are not given here.
QUANTITY_NAME: No. colonies

GWHSLLHSRYHRLAA [SEQ ID NO: 9] = 1
RLAHSHRHRSHVALT [SEQ ID NO: 4] = 18
RRFHFHSRMVAVDNS [SEQ ID NO: 20] = 1

Now consider the entry below.
With TGF-β1 (Homo sapiens) as the test system, HRISHFAHRYLARLH [SEQ ID NO: 7] showed No. colonies of 2
